# Study System: Replication protein A 70 kDa DNA-binding subunit (Homo sapiens)
# Sequence (P27694 whole entry): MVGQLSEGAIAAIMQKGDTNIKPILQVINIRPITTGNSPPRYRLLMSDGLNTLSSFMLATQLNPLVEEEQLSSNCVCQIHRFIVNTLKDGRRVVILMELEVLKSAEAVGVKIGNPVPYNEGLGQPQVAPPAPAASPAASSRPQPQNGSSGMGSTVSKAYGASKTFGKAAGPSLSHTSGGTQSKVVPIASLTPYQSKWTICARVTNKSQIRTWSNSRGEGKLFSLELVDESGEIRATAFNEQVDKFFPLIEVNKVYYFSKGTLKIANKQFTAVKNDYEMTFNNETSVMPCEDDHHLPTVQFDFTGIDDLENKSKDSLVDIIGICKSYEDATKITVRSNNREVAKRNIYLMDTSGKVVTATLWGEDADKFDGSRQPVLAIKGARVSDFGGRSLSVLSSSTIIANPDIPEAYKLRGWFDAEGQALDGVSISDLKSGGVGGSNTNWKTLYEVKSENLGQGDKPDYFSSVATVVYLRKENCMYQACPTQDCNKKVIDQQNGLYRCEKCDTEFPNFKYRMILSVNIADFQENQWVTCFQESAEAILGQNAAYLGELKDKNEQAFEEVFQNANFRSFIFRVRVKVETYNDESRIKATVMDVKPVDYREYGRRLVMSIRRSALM
# Assay Comment: Binding affinity to human RPA70N assessed as inhibition of interaction with FITC-Ahx-DFTADDLEELDTLAS-NH2 after 1 hr by fluorescence polarization anisotropy assay
Observable: pKd
One number for each entry, as −log10 of the molar value.

Example entries begin here.
- Compound: "O=C(O)c1cc2ccc(-n3c(-c4cccc(Oc5ccccc5)c4)n[nH]c3=S)cc2s1"
  Study System: "Replication protein A 70 kDa DNA-binding subunit (Homo sapiens)"
  pKd: 3.98
- Compound: "O=C(O)CSc1nnc(-c2ccc3ccccc3c2)n1-c1ccc(Cl)c(Cl)c1"
  Study System: "Replication protein A 70 kDa DNA-binding subunit (Homo sapiens)"
  pKd: 4.33
- Compound: "Cc1cccc(-c2n[nH]c(=S)n2-c2ccc3c(Cl)c(C(=O)O)sc3c2)c1Br"
  Study System: "Replication protein A 70 kDa DNA-binding subunit (Homo sapiens)"
  pKd: 4.32

Need pKd for each of these compounds.
1. O=C(O)c1cc2ccc(-n3c(-c4cccc(Br)c4)n[nH]c3=S)cc2s1
2. O=C(O)c1sc2cc(-n3c(-c4cccc(Oc5ccccc5)c4)n[nH]c3=S)ccc2c1Cl
3. O=C(O)c1sc2cc(-n3c(S)nnc3-c3ccccc3)ccc2c1Cl

### Response
1: 4.31; 2: 4.20; 3: 3.89

Need pKd for each of these compounds.
1. O=C(O)c1sc2cc(-n3c(-c4cc(Cl)cc(Cl)c4)n[nH]c3=S)ccc2c1Cl
2. O=C(O)CSc1nnc(-c2ccc(O)cc2)n1-c1ccc(Cl)c(Cl)c1
3. O=C(O)c1sc2cc(-n3c(S)nnc3-c3ccc(Cl)cc3)ccc2c1Cl
4. O=C(O)CSc1nnc(-c2cc3ccccc3s2)n1-c1ccc(Cl)c(Cl)c1
5. O=C(O)CSc1nnc(-c2sc3ccccc3c2Cl)n1-c1ccccc1
6. O=C(O)c1sc2cc(Cl)ccc2c1Cl

### Response
[4.82, 3.63, 4.28, 4.24, 3.87, 3.20]

Need pKd for each of these compounds.
1. O=C(O)c1cc2ccc(-n3c(S)nnc3-c3ccc(Br)c(Cl)c3)cc2s1
2. Nc1ccc(-c2nnc(SCC(=O)O)n2-c2ccc(Cl)c(Cl)c2)cc1
3. O=C(O)CSc1nnc(-c2ccc([N+](=O)[O-])cc2)n1-c1ccc(Cl)c(Cl)c1
4. O=C(O)c1cc2ccc(-n3c(-c4ccc(Br)cc4)n[nH]c3=S)cc2s1

### Response
1. 4.92
2. 3.96
3. 3.75
4. 4.15

Data origin: ChEMBL document CHEMBL2406933
